# Measured Target: CDK4/Cyclin D3 complex (Homo sapiens)
# Construct: made in house; host or cells: insect cells co-infected with baculovirus vectors
# Sequence (P11802 whole entry): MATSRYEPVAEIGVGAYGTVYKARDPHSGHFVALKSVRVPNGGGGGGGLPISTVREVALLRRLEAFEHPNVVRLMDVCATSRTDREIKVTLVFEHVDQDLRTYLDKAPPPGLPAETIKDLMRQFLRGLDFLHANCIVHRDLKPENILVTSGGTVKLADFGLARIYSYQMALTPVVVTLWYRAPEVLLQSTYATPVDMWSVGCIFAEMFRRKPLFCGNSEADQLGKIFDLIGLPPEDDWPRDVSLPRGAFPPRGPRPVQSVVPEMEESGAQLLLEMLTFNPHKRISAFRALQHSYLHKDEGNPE
# Sequence (P30281 whole entry partner): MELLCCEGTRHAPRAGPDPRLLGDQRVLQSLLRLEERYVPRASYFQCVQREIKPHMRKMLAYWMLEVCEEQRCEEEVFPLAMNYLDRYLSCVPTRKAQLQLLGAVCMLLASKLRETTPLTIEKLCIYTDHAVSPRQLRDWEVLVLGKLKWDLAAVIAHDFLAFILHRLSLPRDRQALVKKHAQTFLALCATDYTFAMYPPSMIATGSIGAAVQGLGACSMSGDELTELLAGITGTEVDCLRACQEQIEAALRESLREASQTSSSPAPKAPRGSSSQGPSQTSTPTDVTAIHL
# Protocol: CDK4/Cyclin D assay
# Format: biochemical
# Applied Conditions: 1.0 μM; combinatorial library compounds
Entries annotated with measured inhibition at 1 µM
Number only, in %; omit the unit.

• Nc1nc(Nc2ccc(S(N)(=O)=O)cc2)sc1-c1nc(-c2ccc(O)cc2)cs1 [drawing 415] = 51.3

Exercise: Which inhibition at 1 µM value is on record for CC(C)c1ccc(Nc2nc(N)c(-c3nc(-c4ccc(Cl)cc4)cs3)s2)cc1 ?
Solution: 53.1

Exercise: Which inhibition at 1 µM value is on record for Cc1cc(-c2csc(-c3sc(Nc4ccc(S(N)(=O)=O)cc4)nc3N)n2)ccc1Cl ?
Solution: -28

Measured values drawn from patent US6620828B2 for this set.
